Where do these numbers come from? They come from PubChem BioAssay AID504467.

# METHOD SUMMARY: qHTS screen for small molecules that inhibit ELG1-dependent DNA repair in human embryonic kidney (HEK293T) cells expressing luciferase-tagged ELG1; note: nearly all actives have a fitted effect of over 55% in size
# EXPERIMENTAL CONDITIONS: HEK293T ELG1-luciferase reporter, luminescence, 16 h, DNA damage induced by 5-fluorouridine; series mostly up to 46.1 µM
In all, about 330,000 compounds went through this assay and about 7,700 (2.3%) were called active. Inconclusive results (about 26%) are left out. Calls come from the whole dose curve; as a rule, active = well fitted inhibition curve with a large enough effect; inconclusive = small, poorly fitted or top-dose-only effect, or effect the other way; inactive = flat fitted curve, though single readings scatter. This is one part of a sample in which actives are shown more often than they occur.
Response enum: Y for active, N for inactive

# example entries with known answers
COMPOUND | LABEL VALUE
COc1ccc(OC)c(Nc2nc3ccccc3n3cnnc23)c1 | Y
Cc1ccc(NS(=O)(=O)c2ccc(F)cc2)nc1 | N

State the result this test recorded for COc1ccc(NC(=O)C2CCC(CNc3c(N4CCCCC4)c(=O)c3=O)CC2)c(OC)c1 (centres undefined) .
Y

Please give the result for "Cc1c(NC(=O)CSc2nnc(-c3cccnc3)n2N)c(=O)n(-c2ccccc2)n1C" too.
N

Please give the result for "Cc1cccc(N2C(=O)N3[C@H](c4ccc(F)cc4)[C@@H]4C(=O)N(C5CCCCC5)C(=O)[C@@H]4[C@]3(Cc3ccccc3)C2=O)c1" too.
N

Please give the result for "CCOc1ccc(NC(=O)C2CCN(C(=O)N3CCOc4ccccc43)CC2)cc1" too.
N

Please give the result for "COc1ccc(OC)c(NC(=O)COC(=O)Cc2ccsc2)c1" too.
N

Please give the result for "CC(C)(C)OC(=O)C[C@H]1C/C=C\C[C@@H](CC(=O)N[C@H](CO)Cc2ccccc2)C(=O)NC[C@@H](c2ccccc2)OC1=O" too.
N

Please give the result for "COc1ccc(CCNc2nc3ccc(C)cc3n3cnnc23)cc1OC" too.
N
